Assay: yeast display, Sf9 membrane polyspecificity reagent, FACS + sequencing; frameworks hold sequencing errors
attributeMeasured: polyreactivity (PSR sort gate)

- QFQLVESGGGLVQAGGSLRLSCAASGRIFYVYGMGWYRQAPGKERELVAAISKRGDNTYYADSVKGRFTISRDNAKNTVYLQMNSLKPEDTAVYYCNVKRYGGRSDYWGQGTQVTVSS: high polyreactivity
- QVQLVESGGGLVQAGGSLRLSCAASGRTFQRNVMGWYRQAPGKERELVAAISSSGGGTYYADSVQGRFTISRANAKNTVYLQMNSLKPDDTAVYYCAARYRSYGGYGYYYWGLGTQVTVSS: high polyreactivity
- QVQLEDSGGGLVQAGGSLRLSCAASGRTFVFKAMGWYRPAPGKERELVAAITISGGSTYYADSVKGRFTISRDNAKNTVYLQMNSLKPEDTAVYSCNADSKIEVFSYIYDYWGQGTQVTVSS: high polyreactivity
- QFQLVESGGGLVQAGGILRLSCAASGSTFCVYAMGWYRQAPGKERELVATINSGGSTNYADSVKGRFTISRDNAKNTVYLQMNSLKPEDTAVYYCAAGPFWQDFYVYEYDYWGQGTQVTVSS: low polyreactivity
- QDQLVESGGGLVQAGGSLRLSCAASGRTFIRNAMGWYRQAPGKERELVAAISRSGGRTYYADSVKGRFTISRDNAKNTVYLQMNSLKPEDTAVYYCAAGSYQRYAFDYWGQGTQVTVSS: high polyreactivity

// each listed sequence needs a value for polyreactivity (PSR sort gate)
1. QVQLVESGGGLVQAGGSLRLSCAASGFTFGRYAMGWYRQAPGKERELVAAISWSGTRTYYADSVKGRFTISRDNAKNTVYLQLNSLKPEDTADYYCAAYPPPWAQTGFYTYDYWGQGTQVTVSS
2. QVQLVESGGGLVQAGGSLRLSCAASGLTLYYNAMGWYRQAPGKERELVAAISGSGGNTYYADSVKGRFTISRDNAKNTVYLQMNSLKPEDTAVYYCAKVVRVSHRYYYWGQGTQVTVSS
3. QVQLVESGGGLVQAGGSLRLSCAASGSTFYPYAMGWYRQAPGKERELVAAISSRDGRTYYADSVKGRFTISRDNAKNTVYLQMNSLKPEDTAVYYCAAVRALRKVRDYYYWGQGTQVTVSS
4. QVQVVESGGGLVKAGGSLRISCAASGRSFGANVMGWYRQAPGKEREFVAAISSSGGSTYYADSVKGRFTISRDNAKNTVYLQMNSVKPEDTAVYYCAAGGWPYSGGWFFQPNYDYWGQGTQVTVSS
5. QVQLVESGGGLVQAGGSLRLSCAASGSIFSRNAMGWYRQAPGKERELVAAITRSGGRTYYADSVKGRFTISRDNAKNTVYLQMNSLKPEDTAVYYCNALASQEYDYWGQGTQVTVSS

["high polyreactivity", "high polyreactivity", "high polyreactivity", "low polyreactivity", "high polyreactivity"]

GET /values?readout=polyreactivity (PSR sort gate)&item= QVQLVESGGGLVQAGGSLRLSCAASGRTSDGYAMGWYRQAPGKERELVAGITEGGGDTYYADSVKGRFTISRDNAKNTVYLQMNSLKPEDTAVYYCNAVEGSRLPYDYWGQGTQVTVSS low polyreactivity

====

Assay: yeast display, Sf9 membrane polyspecificity reagent, FACS + sequencing; frameworks hold sequencing errors
attributeMeasured: polyreactivity (PSR sort gate)

Worked cases, answers included:
- QVQLVESGGGLVQAGGSLRLSCAASGFTFGPYDLGWYRQAPGKERELVAAITDSSGSTHYADSVKGRFTISRDNAKNTVYLQMNSLKPEDTAVYYCAADDSSRTTYDYWGQGTQVTVSS: low polyreactivity
- QVQLVESGGGLVQAGGSLGLSCAASGSNFHSYAMGWYRQAPGKERELVGAISWCGGSTNYSDSVKGRFTISRDNAKNTVYLQMNSLKPEDTAVYYCAAKEFGSDEYKTGSGYDYWGQCTQVTVSS: low polyreactivity
- QVQLVESGGCLVQAGGSLRLSCAASGSIFPGYAMGWYRQATGKERELVAAISTSGGSTYADSVKGRFTISRDNAKNTVYLQMNSLKPEDTAVYYCAATYTYTSPVYYYLDGPWPYDYWGQGTQVTVSS: low polyreactivity
- QVQIVESGGGLVQAGGSRRLSCAASGIIFYVNVMGWYRQAPGKERELVASNDGSGDTTYYADSVKGRFTISRDNAKNTVYLQMNSLKPEDTAVYYCAADKYSFWSYYPDDDYIYDYWGQGNQVTVSS: low polyreactivity
- QVQLVESGGGLVQAGGSLRLSCAASGRIFKCYAMGWYRQAPGKERELVAAISSGGRTYYADSVKGRFTISRDNAKNTVYLQMNSLKPEDTAVYYCAALQRTGPYAGSSGYWGQGSQVTVSS: high polyreactivity
- QVQLVESGGGLVQAGGSLRLSCAASGSIFGTNAMGWYRPAPGKERELVAAINWSGGTTYYADSVKGRFTISRDNAKNTVYLQMNSLKPEDTAVYYCNADIEKSYNYWGQGTQVTVSS: low polyreactivity

// each listed sequence needs a value for polyreactivity (PSR sort gate)
1. QVQLVESGGGLVQAGGSLRLSCAASGSIFDIYCMGWYRHAPGKERELVASISGGAGSTNYADSVKGRFTISRDNAKNTVYLQMNSLKPEDTAVYYCAAEVYVPDYFQHKFDVEYEYWGQGTQVTVSS
2. QVQLVESGRGKVQAGGSLRLSCAASGFTFRGNAMGWYRQAPGKERELVAAITSSGGRTYYADSVKGRFTISRDNAKNTVYLQMNSLKPEDTAVYYCAARYAYPSRYYYWGQGTQVTVSS
3. QVQLVESGGGLVQAGGSLRLSCAASGRIFYLNAMGWYRQAPGKERELVAAISSRGSRTYYADSVKGRFTISRDNAKNTVYLQMNSLKPEDTAVYYCNVRQRKQPDTDDYWGQGTQVTVSS
4. QVQLVESGGGLVQAGGSLRISCAASGLTSYSYAMGWYRQAPGKERELVAAITVNGGRTYYADSVKGRFTISRDNAKNTVYLQMNSLKPEDTAVYYCAAREVTGRPRSYYYWGQGTQVTVSS
5. QVQLVESGGGIVQAGGSLRLSCAASGSIFKYYAMARYRQAPGKERELVASMSRVGSTNYADSVKGRFTISRDTAKNTVYLQMNSLKPEDTAVYYCNKRWLYYNLDYWGQGTQVTVSS

1: low polyreactivity; 2: high polyreactivity; 3: high polyreactivity; 4: low polyreactivity; 5: high polyreactivity
